The following molecules are listed with their measured melting point values.
PARAMETER_MEASURED: melting point

> print(dat)
                                    molecule       observed
 1                  O=C(O)c1cccc(-c2nnco2)c1  239 to 241 °C
 2  O=C(O)C1(Cc2ccccc2)CC2CCC1C2 (centres undefined)    89 to 91 °C
 3  O=C(O)C(Cc1ccccc1)n1cnnn1 (centres undefined)  162 to 164 °C
 4                    COC1=CC(=C(N)N=O)C=CN1  174 to 176 °C
 5      O=C1NCCCN2CCCC12 (centres undefined)  120 to 122 °C
 6                        CC1CCN(CC(=O)O)CC1  147 to 149 °C
 7        NNC(=O)c1cccc(S(=O)(=O)N2CCOCC2)c1  140 to 142 °C
 8                      CC(C)c1ncc(C(=O)O)s1  133 to 135 °C
 9                    O=C(O)Cn1ncn2nccc2c1=O  213 to 215 °C
10             Cc1cc(-c2nc(C)cs2)c(=O)[nH]n1  267 to 269 °C
11      OC(c1ccccc1)(c1ccc(F)cc1)c1ccc(F)cc1    86 to 88 °C
12                   NS(=O)(=O)Cc1ccc(Cl)nc1  142 to 144 °C
13  O=C1CCC(Cc2ccc(Cl)cc2)C(=O)N1 (centres undefined)  150 to 152 °C
14   O=C(O)C1CCc2ccccc21 (centres undefined)    54 to 56 °C
